- Target of assay: Human complement C1s enzyme (Homo sapiens, UniProt P09871)
- Sequence (P09871 438-688 limits assumed): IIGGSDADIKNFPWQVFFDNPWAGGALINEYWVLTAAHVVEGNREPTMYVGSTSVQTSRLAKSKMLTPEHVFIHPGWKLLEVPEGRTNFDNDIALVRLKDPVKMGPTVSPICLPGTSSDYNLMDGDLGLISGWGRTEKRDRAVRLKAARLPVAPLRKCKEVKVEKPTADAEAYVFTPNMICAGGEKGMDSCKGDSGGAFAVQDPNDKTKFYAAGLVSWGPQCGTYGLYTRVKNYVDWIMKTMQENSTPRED
- Sequence (P09871 16-437 partner limits assumed): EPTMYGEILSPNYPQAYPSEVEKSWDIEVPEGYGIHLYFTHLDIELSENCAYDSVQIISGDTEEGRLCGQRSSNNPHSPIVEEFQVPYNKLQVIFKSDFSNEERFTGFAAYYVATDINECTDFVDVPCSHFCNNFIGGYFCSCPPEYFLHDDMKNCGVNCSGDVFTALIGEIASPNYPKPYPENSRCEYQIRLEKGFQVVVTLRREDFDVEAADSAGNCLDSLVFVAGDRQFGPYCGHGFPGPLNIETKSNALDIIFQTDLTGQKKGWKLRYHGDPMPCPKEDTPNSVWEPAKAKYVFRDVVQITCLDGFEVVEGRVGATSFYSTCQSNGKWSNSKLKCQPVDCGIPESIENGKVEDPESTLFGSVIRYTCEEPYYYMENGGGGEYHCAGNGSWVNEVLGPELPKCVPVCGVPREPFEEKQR
- Protocol description: Human C1s enzyme assay
- Format: biochemical
- Assay context: human complement C1s enzyme 1.16 nM, substrate Z-L-Lys-SBzl 100 μM, 5 min preincubation; read-out: IC50 (Stars), C1s Inhibiting Activity
# IC50 listing for each entry below

## Task Form field: reported IC50 of `Cc1ccc(COc2cccc(C(=O)NCC(=O)N3C[C@H](OC(F)F)C[C@H]3C(=O)NCc3cc4cnccc4[nH]3)c2)c(F)c1`
## Result < 100 nM

## Task Query: IC50; subject: `Cc1ccc(Oc2cccc(C(=O)NCC(=O)N3C[C@H](OC(F)F)C[C@H]3C(=O)NCc3cc4cnccc4[nH]3)c2)c(F)c1`
## Result < 100 nM

## Task Item `COc1cccc(C(=O)NCC(=O)N2C[C@H](OC(F)F)C[C@H]2C(=O)NCc2cc3cnccc3[nH]2)c1` has what recorded IC50?
## Result 100 to 1000 nM

## Task IC50 for `O=C(NCC(=O)N1C[C@H](OC(F)F)C[C@H]1C(=O)NCc1cc2cnccc2[nH]1)c1cncc(N2CCOCC2)n1` ?
## Result > 1000 nM

* * *

- Target of assay: Human complement C1s enzyme (Homo sapiens)
- Protocol description: Human C1s enzyme assay
- Type: biochemical
- Assay context: human complement C1s enzyme 1.16 nM, substrate Z-L-Lys-SBzl 100 μM, 5 min preincubation; read-out: IC50 (Stars), C1s Inhibiting Activity
pIC50: −log10 of the molar value.
The following compounds are shown together with reported pIC50 values.

Sample answers from the record:
Compound smiles: C[C@@H](NC(=O)[C@@H]1C[C@H](C2OCCCO2)CN1C(=O)CNC(=O)c1ccc2c(c1)Oc1ccccc1S2)c1cc2cnccc2[nH]1
Target of assay: Human complement C1s enzyme (Homo sapiens)
pIC50: > 7.00

Compound smiles: Cc1nc(N)ccc1CNC(=O)[C@@H]1C[C@]2(C)C[C@@H]2N1C(=O)CNC(=O)c1ccc2c(c1)Oc1ccccc1S2
Target of assay: Human complement C1s enzyme (Homo sapiens)
pIC50: < 6.00

## Task Give recorded pIC50 with Human complement C1s enzyme (Homo sapiens) for the following compound: `COC[C@@]1(F)C[C@@H](C(=O)NCc2cc3cnccc3[nH]2)N(C(=O)CNC(=O)c2ccc(Oc3ccccc3)cc2)C1`
## Result > 7.00

## Task Look up pIC50 with Human complement C1s enzyme (Homo sapiens) for this compound: `O=C(NCC(=O)N1C[C@H](OC(F)F)C[C@H]1C(=O)NCc1cc2cnccc2[nH]1)c1ccc(F)c(Oc2ccsc2)c1`
## Result > 7.00

## Task Find pIC50 (Human complement C1s enzyme (Homo sapiens)) for the entry `C[C@@H](NC(=O)[C@@H]1C[C@](F)(Cn2ccnc2)CN1C(=O)CNC(=O)c1ccc2c(c1)Oc1ccccc1S2)c1cc2cnccc2[nH]1`
## Result > 7.00

## Task What measured pIC50 is associated with `COC[C@@]1(F)C[C@@H](C(=O)N[C@H](C)c2cc3cnccc3[nH]2)N(C(=O)CNC(=O)c2ccc(Oc3ccc(F)cc3)cc2)C1` on Human complement C1s enzyme (Homo sapiens)?
## Result > 7.00

## Task Human complement C1s enzyme (Homo sapiens) / pIC50 / `O=C(NCC(=O)N1C[C@@](F)(CF)C[C@H]1C(=O)NCc1cc2cnccc2[nH]1)c1ccc2c(c1)-c1ccccc1C2(F)F` : value?
## Result > 7.00

## Task Form field: pIC50 recorded for `C[C@@]12C[C@@H]1N(C(=O)CNC(=O)CCCOc1ccccc1)[C@H](C(=O)NC1(c3ccc4c(c3)CNCC4)CC1)C2` with Human complement C1s enzyme (Homo sapiens) (enter value)
## Result < 6.00

## Task Requested read-out pIC50, target or system Human complement C1s enzyme (Homo sapiens), entry `O=C(NCC(=O)N1C[C@H](OC(F)F)C[C@H]1C(=O)NCc1ccn2ccnc2c1)c1ccc2c(c1)Oc1ccccc1S2`
## Result < 6.00
